experiment: Minimum toxic concentration required to cause a microscopically detectable alteration of normal HeLa cell morphology; assay type: toxicity, cell-based; details: human, HeLa cells; read-out: MTC
Give measured MCC for each item. Keep answers brief.

Provide reported MCC for each item, in the same order as listed.
1. NC(=O)c1ncn([C@@H]2O[C@H](CO)[C@@H](O)[C@H]2O)n1
2. Cc1ccc(Cc2ncn3c(=O)[nH]c(=S)[nH]c23)cc1
3. O=c1[nH]c(=S)[nH]c2c(Cc3ccccc3)ncn12

Ans.
["> 820 µM", "> 735 µM", "> 775 µM"]

Please go through the list and note MCC for each compound.
1. Cc1ccc(CSC2NC(=O)n3c(C)nc(C)c3N2)cc1 (stereo not drawn)
2. Cc1ncn2c(S)ncnc12
3. Cc1nc(C)n2c1NC=NC2N (stereo not drawn)
4. Oc1ncnc2c(Cc3ccccc3)ncn12
5. Cc1ccc(Cc2ncn3c(N(C)C)ncnc23)cc1

Ans.
328 µM
602 µM
> 1100 µM
> 885 µM
> 749 µM

---

Consider the following compounds; for each one, report its log10(MCC).
experiment: Minimum toxic concentration required to cause a microscopically detectable alteration of normal HeLa cell morphology; type: toxicity, cell-based; conditions: human, HeLa cells; read-out: MTC
Plainly stated, the numbers are log10 of MCC given in µM.

Example results:
Cc1ccc(CSC2NC(=O)n3cnc(Cc4ccc(C)cc4)c3N2)cc1 (configuration not stated)	1.01
CSc1ncnc2c(Cc3ccc(C)cc3)ncn12	1.87
Cc1nc(Cc2ccccc2)c2ncnc(O)n12	2.62
NC12CC3CC(CC(C3)C1)C2	2.82

// next item, log10(MCC) requested
Qu. For the compound CSC1NC(=O)n2cnc(CCCCCOCc3ccccc3)c2N1 (configuration not stated) , report log10(MCC).
Ans. 1.05

---

assay: Minimum toxic concentration required to cause a microscopically detectable alteration of normal MDCK cell morphology; assay type: toxicity, cell-based, Canis lupus familiaris; details: dog, MDCK cells; read-out: MTC
Measured quantity: MCC

Cc1ccc(CSc2ncnc3c(Cc4ccc(C)cc4)ncn23)cc1	278 µM
Cc1ncn2c(=O)[nH]c(=S)[nH]c12	> 1100 µM
CN(C)c1ncnc2c(Cc3ccccc3)ncn12	> 790 µM
Oc1ncnc2c(Cc3ccccc3)ncn12	> 885 µM
O=c1[nH]c(=S)[nH]c2c(Cc3ccccc3)ncn12	> 775 µM
Cc1ncn2c(S)ncnc12	602 µM

Note: attention shifts to another entry.
Qu. For Cc1nc(Cc2ccccc2)c2ncnc(O)n12 , write its MCC.
Ans. > 833 µM

---

system: HeLa; experiment: Inhibitory concentration against respiratory syncytial virus in HeLa cells; type: functional, cell-based; details: Homo sapiens
pIC50: −log10 of the molar value.
Measured quantity: pIC50

As a guide, the following entries are already answered.
CSC1NC(=O)n2cnc(CCCCCOCc3ccccc3)c2N1 (centres undefined)	5.66
CSc1ncnc2c(Cc3ccc(C)cc3)ncn12	4.65
Cc1nc(C)n2c(S)ncnc12	< 3.26
Cc1nc(C)n2c1NC=NC2N (centres undefined)	< 2.96
Cc1ccc(Cc2ncn3c(O)ncnc23)cc1	< 3.08

Below are 4 compounds. Give each one its pIC50.
1. NC12CC3CC(CC(C3)C1)C2
2. CN(C)c1ncnc2c(Cc3ccccc3)ncn12
3. O=c1[nH]c(=S)[nH]c2c(Cc3ccccc3)ncn12
4. Cc1nc(Cc2ccccc2)c2ncnc(O)n12

Ans.
1. < 3.18
2. 3.40
3. < 3.11
4. < 3.38

---

Can you tell me MCC for the items I'm about to list?
experiment: Minimum toxic concentration required to cause a microscopically detectable alteration of normal HeLa cell morphology; type: toxicity, cell-based; details: human, HeLa cells; read-out: MTC
Numbers only, in µM.

Provide MCC for all items below, preserving their order.
1. O=c1[nH]c(=S)[nH]c2c(CCCCCOCc3ccccc3)ncn12
2. Cc1nc(C)n2c(S)ncnc12
3. CSC1N=CNc2c(C)nc(C)n21 (stereo not drawn)
4. CSC1NC(=O)n2cnc(Cc3ccc(C)cc3)c2N1 (stereo not drawn)
5. Cc1ccc(CSc2ncnc3c(Cc4ccc(C)cc4)ncn23)cc1
6. Cc1ncn2c(=O)[nH]c(=S)[nH]c12
7. Cc1ccc(Cc2ncn3c(S)ncnc23)cc1
8. Cc1ccc(CSC2NC(=O)n3cnc(CCCCCOCc4ccccc4)c3N2)cc1 (stereo not drawn)

Ans.
1: 87.2; 2: 556; 3: 515; 4: 20.3; 5: 278; 6: 549; 7: 6.2; 8: 44.6

---

assay: Minimum toxic concentration required to cause a microscopically detectable alteration of normal vero cell morphology; type: toxicity, cell-based; details: chlorocebus sabaeus, Vero cells; read-out: MTC
Exercise: state measured MCC for each of the compounds provided.
Give bare numbers, in µM.

CSC1N=CNc2c(C)nc(C)n21 (stereo unspecified)	515
Cc1ccc(Cc2ncn3c(N(C)C)ncnc23)cc1	374
Cc1ccc(CSc2ncnc3c(Cc4ccc(C)cc4)ncn23)cc1	278

API: the following record is the query input.
Qu. Please give measured MCC of the following entry: Cc1ccc(Cc2ncn3c(S)ncnc23)cc1
Ans. 4.6

---

system: HeLa; assay: Inhibitory concentration against respiratory syncytial virus in HeLa cells; assay type: functional, cell-based; settings: Homo sapiens
Field: pIC50. Provide a value for each of the molecules that follow.
Give bare numbers, as −log10 of the molar value.

Some solved cases for reference:
Cc1ccc(CSC2NC(=O)n3cnc(Cc4ccc(C)cc4)c3N2)cc1 (configuration not stated)	5.85
CSC1N=CNc2c(C)ncn21 (configuration not stated)	3.95

API: the following record is the query input.
Qu. Tell me measured pIC50 for Cc1nc(C)n2c1NC(SCc1ccccc1)NC2=O (configuration not stated) please.
Ans. 4.68

---

tested on: Human immunodeficiency virus 2; assay: Inhibitory concentration against HIV-2 replication; type: functional, organism-based
Measured quantity: IC50 (µM)
Give bare numbers, in µM.

Qu. Identify measured IC50 associated with Sc1ncnc2c(Cc3ccccc3)ncn12
Ans. 17.7

---

assay: Minimum toxic concentration required to cause a microscopically detectable alteration of normal MDCK cell morphology; type: toxicity, cell-based, Canis lupus familiaris; conditions: dog, MDCK cells; read-out: MTC
For each record, write down the corresponding MCC.
One number for each entry, in µM.

# example entries with known answers
Cc1ccc(CSC2NC(=O)n3cnc(Cc4ccc(C)cc4)c3N2)cc1 (stereo not drawn)	260
Cc1ccc(CSC2NC(=O)n3c(C)nc(C)c3N2)cc1 (stereo not drawn)	328
Sc1ncnc2c(Cc3ccccc3)ncn12	16.5
Cc1ccc(CSC2NC(=O)n3cnc(CCCCCOCc4ccccc4)c3N2)cc1 (stereo not drawn)	223

Okay, now this compound:
Qu. Give a short answer stating reported MCC for CSC1N=CNc2c(C)nc(C)n21 (stereo not drawn) .
Ans. 515

---

experiment: Minimum toxic concentration required to cause a microscopically detectable alteration of normal vero cell morphology; type: toxicity, cell-based; details: chlorocebus sabaeus, Vero cells; read-out: MTC
Provide the reported MCC of each item.

Here are 5 compounds together with their reported answers.
Cc1nc(C)n2c1NC(SCc1ccccc1)NC2=O (centres undefined)	> 350 µM
Cc1nc(C)n2c(S)ncnc12	556 µM
Cc1ncn2c(S)ncnc12	602 µM
O=c1[nH]c(=S)[nH]c2c(Cc3ccccc3)ncn12	581 µM
Cc1nc(C)n2c1NC=NC2N (centres undefined)	> 1100 µM

Need MCC for each of these compounds.
1. Cc1nc(Cc2ccccc2)c2ncnc(O)n12
2. Cc1ccc(Cc2ncn3c(O)ncnc23)cc1
3. CSC1NC(=O)n2cnc(CCCCCOCc3ccccc3)c2N1 (centres undefined)
4. CN(C)c1ncnc2c(Cc3ccccc3)ncn12
5. CSC1N=CNc2c(C)ncn21 (centres undefined)
6. CSC1NC(=O)n2cnc(Cc3ccc(C)cc3)c2N1 (centres undefined)

Ans.
417 µM
625 µM
> 112 µM
> 790 µM
111 µM
> 339 µM

Batch request: MCC for each of the following compounds.
1. Cc1ncn2c1NC=NC2N (centres undefined)
2. Cc1nc(C)n2c(=O)[nH]c(=S)[nH]c12
3. Sc1ncnc2c(Cc3ccccc3)ncn12

Ans.
1: 671 µM; 2: 1020 µM; 3: 24.7 µM

---

Field: MCC. Provide a value for each of the compounds that follow.
assay: Minimum toxic concentration required to cause a microscopically detectable alteration of normal vero cell morphology; format: toxicity, cell-based; conditions: chlorocebus sabaeus, Vero cells; read-out: MTC

For every listed record, write down its MCC.
1. CSc1ncnc2c(Cc3ccc(C)cc3)ncn12
2. NC(=O)c1ncn([C@@H]2O[C@H](CO)[C@@H](O)[C@H]2O)n1
3. Cc1ccc(CSC2NC(=O)n3cnc(Cc4ccc(C)cc4)c3N2)cc1 (stereo unspecified)
4. Cc1ncn2c(=O)[nH]c(=S)[nH]c12
5. Cc1ccc(CSC2NC(=O)n3c(C)nc(C)c3N2)cc1 (stereo unspecified)
6. Cc1ccc(CSC2NC(=O)n3cnc(CCCCCOCc4ccccc4)c3N2)cc1 (stereo unspecified)

Ans.
["> 370 µM", "> 1640 µM", "> 260 µM", "1100 µM", "328 µM", "> 89.2 µM"]
